assay: Conversion rate of salt-form prodrugs to parent compound in mouse plasma; assay type: in vitro ADME; conditions: conversion to Compound 1, mouse plasma, 37 °C, 1 h
# binarize Release rate: threshold 7% inclusive, high side true, low side false

Task item: Reported Release rate reaches at least 7% for CN(C)C[C@@H]1C(=O)O[C@H]2[C@H]1CC[C@@]1(C)C[C@]13CC[C@@](C)(O)[C@H]23 [compound 39] ?
Reply: false

Task item: Moving on to C[C@@]12CC[C@@H]3[C@H](OC(=O)[C@H]3CN3CCC4(CC3)CC4)[C@@H]3[C@]1(CC[C@@]3(C)O)C2
Reply: true

Task item: Moving on to CCN1CCN(C[C@@H]2C(=O)O[C@H]3[C@H]2CC[C@@]2(C)C[C@]24CC[C@@](C)(O)[C@H]34)CC1
Reply: true

Task item: Moving on to C[C@@]12CC[C@@H]3[C@H](OC(=O)[C@H]3CN3CCCCCCC3)[C@@H]3[C@]1(CC[C@@]3(C)O)C2
Reply: false

Task item: Moving on to C[C@@]12CC[C@@H]3[C@H](OC(=O)[C@H]3CN3CCCCC3)[C@@H]3[C@]1(CC[C@@]3(C)O)C2
Reply: true

Task item: Moving on to CCCCN(CCCC)C[C@@H]1C(=O)O[C@H]2[C@H]1CC[C@@]1(C)C[C@]13CC[C@@](C)(O)[C@H]23
Reply: false

Task item: Moving on to C[C@@]12CC[C@@H]3[C@H](OC(=O)[C@H]3CN3CCC(N4CCOCC4)CC3)[C@@H]3[C@]1(CC[C@@]3(C)O)C2
Reply: false

Task item: Moving on to CN(C)C[C@@H]1C(=O)O[C@H]2[C@H]1CC[C@@]1(C)C[C@]13CC[C@@](C)(O)[C@H]23 [compound 41]
Reply: true
